# SYSTEM_TESTED: MAP kinase-activated protein kinase 2 (Homo sapiens)
# ASSAY_COMMENT: Inhibition of human MK2
# MEASUREMENT_SETUP: read-out: IC50
Label key: Yes means IC50 under 100 nM; No means IC50 of 100 nM or more.

N#Cc1ccc(-c2ccc(C(=O)N(Cc3ccc(-c4ccccc4)cc3)c3ccc(N4CCNCC4)cc3)o2)cc1 :: Yes
COc1ccc(-c2ccccc2CN(C(=O)c2ccc(-c3ccc(C#N)cc3)o2)c2ccc(N3CCNCC3)cc2)cn1 :: Yes
COc1ccccc1-c1ccccc1CN(C(=O)c1ccc(-c2ccc(C#N)cc2)o1)c1ccc(N2CCNCC2)cc1 :: Yes
N#Cc1ccc(-c2ccc(C(=O)N(Cc3cccc(-c4ccccc4F)c3)c3ccc(N4CCNCC4)cc3)o2)cc1 :: No
N#Cc1ccc(-c2ccc(C(=O)N(Cc3ccccc3-c3cccnc3)c3ccc(N4CCNCC4)cc3)o2)cn1 :: No

**Query** Decide: IC50 of Cc1noc(C)c1-c1ccccc1CN(C(=O)c1ccc(-c2ccc(C#N)cc2)o1)c1ccc(N2CCNCC2)cc1 strictly below 100 nM?
**Result** Yes

**Query** Decide: IC50 of Cc1cccc(C)c1-c1ccccc1CN(C(=O)c1ccc(-c2ccc(C#N)cc2)o1)c1ccc(N2CCNCC2)cc1 strictly below 100 nM?
**Result** No

**Query** Decide: IC50 of N#Cc1ccc(-c2ccc(C(=O)N(Cc3ccccc3-c3ccncc3)c3ccc(N4CCNCC4)cc3)o2)cc1 strictly below 100 nM?
**Result** Yes

* * *

# SYSTEM_TESTED: MAP kinase-activated protein kinase 2 (Homo sapiens, UniProt P49137)
# Sequence (P49137 whole entry): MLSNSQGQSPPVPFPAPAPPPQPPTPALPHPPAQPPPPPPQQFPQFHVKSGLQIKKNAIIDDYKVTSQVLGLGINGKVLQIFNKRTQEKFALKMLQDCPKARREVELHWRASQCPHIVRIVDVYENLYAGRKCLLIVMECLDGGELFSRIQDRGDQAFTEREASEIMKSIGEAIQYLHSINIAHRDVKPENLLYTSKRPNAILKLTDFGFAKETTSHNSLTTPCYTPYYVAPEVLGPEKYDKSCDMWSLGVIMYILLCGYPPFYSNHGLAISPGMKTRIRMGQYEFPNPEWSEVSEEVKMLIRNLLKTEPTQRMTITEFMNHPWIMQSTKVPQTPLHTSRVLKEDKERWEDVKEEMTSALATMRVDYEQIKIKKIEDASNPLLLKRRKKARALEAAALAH
# ASSAY_COMMENT: Inhibition of human MK2
# MEASUREMENT_SETUP: read-out: IC50
Label key: true means IC50 under 70 nM; false means IC50 of 70 nM or more.

**Query** Decide: IC50 of N#Cc1ccc(-c2ccc(C(=O)N(Cc3ccccc3-c3cncnc3)c3ccc(N4CCNCC4)cc3)o2)cc1 strictly below 70 nM?
**Result** true

**Query** Decide: IC50 of N#Cc1ccc(-c2ccc(C(=O)N(Cc3ccc(-c4ccncc4)cc3)c3ccc(N4CCNCC4)cc3)o2)cc1 strictly below 70 nM?
**Result** false

* * *

Would you mind telling me the reported IC50 of each entry?
# SYSTEM_TESTED: MAP kinase-activated protein kinase 2 (Homo sapiens, UniProt P49137)
# ASSAY_COMMENT: Inhibition of human MK2
# MEASUREMENT_SETUP: read-out: IC50
One number for each entry, in nM.

Before answering, review these 3 worked examples.
Cc1ccccc1-c1ccccc1CN(C(=O)c1ccc(-c2ccc(C#N)cc2)o1)c1ccc(N2CCNCC2)cc1 :: 285
N#Cc1ccc(-c2ccc(C(=O)N(Cc3ccccc3-c3ccccc3F)c3ccc(N4CCNCC4)cc3)o2)cc1 :: 12
N#Cc1ccc(-c2ccc(C(=O)N(Cc3cccc(-c4ccncc4)c3)c3ccc(N4CCNCC4)cc3)o2)cc1 :: 110

Give IC50 for each of the items listed below.
1. N#Cc1ccc(-c2ccc(C(=O)N(Cc3ccccc3-c3cccc(C#N)c3)c3ccc(N4CCNCC4)cc3)o2)cc1
2. N#Cc1ccc(-c2ccc(C(=O)N(Cc3ccccc3-c3cccnc3)c3ccc(N4CCNCC4)cc3)o2)cc1
3. CN1CCN(CCCN(Cc2ccccn2)C(=O)c2ccc(-c3ccc(C#N)cc3)o2)CC1
4. O=C(c1ccc(-c2ccc(Cl)cc2)o1)N(Cc1ccccn1)c1ccc(N2CCNCC2)cc1
5. COc1ccncc1-c1ccccc1CN(C(=O)c1ccc(-c2ccc(C#N)cc2)o1)c1ccc(N2CCNCC2)cc1
6. N#Cc1ccc(-c2ccc(C(=O)N(Cc3ccccc3-c3ccccc3)c3ccc(N4CCNCC4)cc3)o2)cc1
7. Cc1cccc(CN(C(=O)c2ccc(-c3ccc(C#N)cc3)o2)c2ccc(N3CCNCC3)cc2)n1

**Result**
1: 19; 2: 9; 3: 10000; 4: 110; 5: 8; 6: 9; 7: 79
